- method-description: Inhibition of CD40L, IFN-gamma and IL18 mixture-induced IL12p40 production in mouse DC-B cells after 18 to 24 hrs by fluorescence immunoassay
- Assay type: functional, cell-based
pIC50: −log10 of the molar value.
Label scheme for pIC50: lower than 7 is class 0, 7 and above is class 1.

In: Please indicate if the recorded pIC50 for `O=C(Nc1cc(Cl)cc(Cl)c1)c1ccccc1O` meets or exceeds 7.
Out: class 1

In: Also, `O=C(Nc1cc(Cl)cc(Cl)c1)c1cc(Br)ccc1O` please.
Out: class 1

In: Also, `Cc1cc(C)cc(NC(=O)c2ccccc2O)c1` please.
Out: class 0

In: Also, `O=c1oc2cc(Cl)ccc2c(=O)n1-c1cc(C(F)(F)F)cc(C(F)(F)F)c1` please.
Out: class 0

In: Also, `O=C(O)CN(C(=O)c1ccccc1O)c1cc(Cl)cc(Cl)c1` please.
Out: class 0

In: Also, `O=C(Nc1cc(Cl)cc(Cl)c1)c1ccccc1NS(=O)(=O)c1ccc(Cl)c([N+](=O)[O-])c1` please.
Out: class 0

====

- method-description: Inhibition of CD40L, IFN-gamma and IL18 mixture-induced IL12p40 production in mouse DC-B cells after 18 to 24 hrs by fluorescence immunoassay
- Assay type: functional, cell-based
Field: IC50. Provide a value for each of the compounds that follow.

In: IC50 for `O=C(Nc1cc(C(F)(F)F)ccc1Cl)c1ccccc1O` ?
Out: 200 nM

In: Also, `O=C(Nc1cc(Cl)c(Cl)cc1Cl)c1ccccc1O` please.
Out: 45 nM

In: Also, `Oc1ccc(Br)cc1CNc1cc(Cl)cc(Cl)c1` please.
Out: 2700 nM

In: Also, `CN(C(=O)c1ccccc1O)c1cc(Cl)cc(Cl)c1` please.
Out: > 10000 nM

In: Also, `O=C(Nc1ccccn1)c1ccccc1O` please.
Out: > 10000 nM

In: Also, `O=C1c2cccc(O)c2C(=O)N1c1cc(Cl)cc(Cl)c1` please.
Out: > 10000 nM

In: Also, `O=C(Nc1cc(Cl)cc(Cl)c1)c1ccc([N+](=O)[O-])cc1O` please.
Out: 320 nM

In: Also, `O=C(Nc1cc(Cl)cc(Cl)c1)c1cc([N+](=O)[O-])ccc1O` please.
Out: 410 nM

In: Also, `O=C(Nc1cccc(Cl)c1)c1ccccc1O` please.
Out: 5100 nM

In: Also, `O=C(Nc1cc(Cl)cc(Cl)c1)c1ccccc1OCc1ccccc1` please.
Out: > 10000 nM

In: Also, `O=C(Nc1ccc(Cl)c(Cl)c1)c1cc(Cl)ccc1O` please.
Out: 130 nM

In: Also, `O=C(Nc1ccc(O)cc1)c1ccccc1O` please.
Out: > 10000 nM
